Source: PubChem BioAssay (EPA / NIEHS)

Overview of recorded AC50 for various compounds
Read-out: Pyruvate Dehydrogenase Kinase 4 (PDK4), PDK4 (gene 5166)
assay text: LTEA_HepaRG_PDK4: Life Technologies and Expression Analysis (LTEA) Assay for Pyruvate Dehydrogenase Kinase 4 (PDK4) using HepaRG (AID 2283525)
conditions used: mRNA level, 48 h; actives raise or lower the signal
The source made the active and inactive calls. How the source made its calls: active means hit-call score of the fitted dose curve at least 0.9, where 1 is the maximum; inactive means score below 0.9.

[
  {
    "given smiles": "CCN1CCC2(CC1)COc1cc3c(cc12)N(C(=O)c1ccc(-c2ccc(-c4nnc(C)o4)cc2C)cc1)CC3",
    "AC50": "28.4 µM (active)"
  },
  {
    "given smiles": "O=C(O)C(F)(F)C(F)(F)C(F)(F)C(F)(F)C(F)(F)C(F)(F)F",
    "AC50": "35.6 µM (active)"
  }
]
